System: Fibroblast
Assay: Multiplex assay against human fibroblast
Assay type: toxicity, cell-based
Conditions: 48 h, 10 µM, compound concentration 10 uM, replicate 2
measurement.type: Population Mitotic Cells (%)
Could you kindly put the unit after your number?

# input // returns reported Population Mitotic Cells (%) for input COCCn1c(C)c(C)s/c1=N\C(=O)C1C(C)(C)C1(C)C
# output 41%

# input // returns reported Population Mitotic Cells (%) for input CSc1nc(NC2CCCC2)c([N+](=O)[O-])c(NC2CCCC2)n1
# output 40%

# input // returns reported Population Mitotic Cells (%) for input C[C@@H]1CC(=O)Nc2cccc(-c3ccc4c(c3)c(-c3cnn(C)c3)nn4C)c2N1
# output 39%
